tested on: SW-620 colon; experiment: NCI tumour cell line growth inhibition, 48 h; in the data active = GI50 below about 0.43 µM; inactive = the rest
Labels: true = active, false = inactive

1. OCc1cc2ccccc2c2c3c(ccc12)OCO3	false
2. COc1cc(/C=N\NC(=O)CN2CCN(c3cc4c(cc3F)c(=O)c(C(=O)N/N=C/c3cc(OC)c(OC)c(OC)c3)cn4C3CC3)CC2)cc(OC)c1OC	true
3. COc1cccc(-c2cc(-c3cccc(NS(C)(=O)=O)c3)nc(N)c2C#N)c1O	true
4. COc1ccc2c(c1)sc1nc(-c3ccccc3)c(-c3cccc4ccccc34)n12	true
5. CC1CCc2nc[nH]c(=O)c21 (stereo unspecified)	false
6. Nc1ccccc1C#C/C=C\C#Cc1ccccc1OC(F)(F)F	false
7. Cn1cc(C2=C(c3c4n(c5ccccc35)CCCCC4)C(=O)NC2=O)c2ccccc21	false
8. CCCCCCCCCCCCCC(=O)OC(/C=C/C(C)C)C(O)C(O)C(OC)C(=O)NC1CCCCN(C)C1=O (stereo unspecified)	false
9. CC1CCC(n2c3cnccc3c3cnc(Nc4ccc5c(n4)CCN(C(=O)CO)C5)nc32)CC1 (stereo unspecified)	true
10. O=C(Nc1ccccc1)c1c(O)[nH]c(=S)[nH]c1=O	false
11. Cc1ccnc2c1ccc1c(C)ccnc12	false

---

system: SK-OV-3 ovarian; experiment: NCI tumour cell line growth inhibition, 48 h; in the data active means GI50 below about 0.43 µM; inactive means the rest
Outcome codes: active, inactive

1) NS(=O)(=O)OC[C@@H]1C[C@@H](n2ccc3c(NC4CCc5ccccc54)ncnc32)C[C@@H]1O (some centres not stated)	inactive
2) Cc1ccnc2c1ccc1c(C)ccnc12	inactive
3) Cn1cc(C2=C(c3c4n(c5ccccc35)CCCCC4)C(=O)NC2=O)c2ccccc21	inactive
4) Cc1nc2sccn2c1-c1csc(Nc2ccccc2Cl)n1	inactive
5) FC(F)(F)c1cccc(Nc2nc(-c3ccccc3)nc3ncccc23)c1	inactive
6) COc1cc(/C=N\NC(=O)CN2CCN(c3cc4c(cc3F)c(=O)c(C(=O)N/N=C/c3cc(OC)c(OC)c(OC)c3)cn4C3CC3)CC2)cc(OC)c1OC	inactive
7) O=C(Nc1ccc(-n2ccc3c(NC(=O)c4ccccc4)nccc32)cc1)c1ccc(Cl)c(C(F)(F)F)c1	inactive
8) CCC[CH2][Sn]([CH2]CCC)([S]c1cccc2cccnc12)[S]c1cccc2cccnc12	active
9) CCN1CCN(Cc2ccc(NC(=O)c3cccc(C#Cc4cccc5[nH]nc(N)c45)c3)cc2C(F)(F)F)CC1	inactive
10) Nc1ccccc1C#C/C=C\C#Cc1ccccc1OC(F)(F)F	inactive
11) Fc1[nH]nc2ccc([C@@H]3Nc4ccc5[nH]ncc5c4[C@H]4C5CCC(C5)[C@@H]34)cc12 (some centres not stated)	inactive
12) Nc1c(C(=O)c2cccc(CCS(N)(=O)=O)c2)cnn1-c1ccc(F)cc1	inactive

---

test system: NCI-H522 lung; assay: NCI tumour cell line growth inhibition, 48 h
This listing pairs compounds with measured TGI.
Result Type: TGI

1. COC(=O)CC[N+]1=CCC(c2ccccc2)(c2ccccc2)O1	> 100 µM
2. NC(=O)NO.O.O.O.O.O.O.O.O.O.O.O.[Ge].[Ge].[Ge].[Ge].[Ge].[O]=[Ge].[O]=[Ge].[O]=[Ge].[O]=[Ge].[O]=[Ge][OH]	> 100 µM
3. O=[N+]([O-])c1cccc(-c2csc(NNC3=NC/C(=C/c4ccc5c(c4)OCO5)S3)n2)c1	42.9 µM
4. CCOC(=O)CCC1(C(=O)OCC)CCCCC1=O (stereo not given)	> 100 µM
5. COc1cc2c(c(OC)c1OC)C(=O)[C@@H]1[C@H]2N1C(N)=O	> 100 µM

---

test system: PC-3 prostate; test: NCI tumour cell line growth inhibition, 48 h
Result Type: TGI

1. O=[N+]([O-])c1cccc(-c2csc(NNC3=NC/C(=C/c4ccc5c(c4)OCO5)S3)n2)c1	55.8 µM
2. CCOC(=O)C(SCCO)C(C(=O)OCC)n1cnc2c(=O)[nH]c(NC(C)=O)nc21 (stereo not given)	> 100 µM
3. CCOC(=O)Cn1c(C(F)(F)F)nc2nc(Cl)c(Cl)nc21	> 100 µM
4. Cc1cc(Cc2cc(C)c(N)cc2N)c(N)cc1N	> 100 µM
5. N#CCCC1C(C#N)C2(Cl)CC1(Cl)C(Cl)=C2Cl (stereo not given)	> 10 µM
6. O=C(CCNC12CC3CC(CC(C3)C1)C2)c1ccccc1	50.5 µM
7. O=[N+]([O-])c1ccc2c(c1)/C(=N/N=C1c3ccccc3Cc3ccccc31)c1cc([N+](=O)[O-])cc([N+](=O)[O-])c1-2	10.2 µM
8. COC(=O)C([C@H](NC1(c2ccccc2)c2ccccc2-c2ccccc21)C(=O)OC)N(NC(=O)OCc1ccccc1)C(=O)OCc1ccccc1 (mixture of isomers)	> 100 µM
9. CN1CCCCC1CCN1c2ccccc2Sc2ccc(Cl)cc21 (stereo not given)	11.7 µM
10. O=c1ccc(-c2ccccc2)n[nH]1	> 100 µM
11. CCN1/C(=C\c2cc[n+](CC)c3ccccc23)C=Cc2ccccc21	1.85 µM
12. C[C@@H](NC(=O)[C@@H]1C[C@]1(C)COC(=O)c1cc([N+](=O)[O-])cc([N+](=O)[O-])c1)c1cccc2ccccc12	> 100 µM
13. C=CC(=O)Nc1cc(Nc2ncc(C(=O)OC(C)C)c(-c3cn(C)c4ccccc34)n2)c(OC)cc1N(C)CCN(C)C	9.54 µM
14. COc1ccc(C2CC(c3c(O)ccc4ccccc34)=NN2C(C)=O)cc1OC (stereo not given)	> 100 µM
15. Nc1c(C(=O)c2cccc(CCS(N)(=O)=O)c2)cnn1-c1ccc(F)cc1	> 25 µM
16. OCc1cc2ccccc2c2c3c(ccc12)OCO3	140 µM
17. Cc1ccc(-c2n[nH]c(=O)n2N2C(=O)c3ccccc3C2=O)cc1	> 100 µM
18. NC(=O)NCCCC(NC(=O)OCCCCn1ccc(=O)[nH]c1=O)C(=O)O (stereo not given)	> 100 µM
19. COC(=O)C1SC(SC)=NC12c1ccccc1Nc1ccccc12 (stereo not given)	87 µM
20. O=C1/C(=C\c2ccccc2)C(NC2CCCCC2)c2ccccc21 (stereo not given)	3.78 µM
21. COC([CH2][Hg][n]1cnc2c1c(=O)n(C)c(=O)n2C)CN1C(=O)c2ccccc2S1(=O)=O (stereo not given)	> 100 µM
22. N#Cc1c(-c2ccccc2)/c(=C\Nc2cccc(C(F)(F)F)c2)c(=O)n2c1nc1ccccc12	> 100 µM
23. CCOC(=O)/C=C/CC(C)(C)CCOC(C)=O	> 10 µM
24. CC(=O)NC(Cc1ccc(O)cc1)C(=O)O (stereo not given)	> 100 µM
25. CC(C)=CCC\C(C)=C/C=C/C(C)=C\C=C\C(C)=C/C=C/C=C(C)\C=C\C=C(C)/C=C/C=C(/C)CCC=C(C)C	> 100 µM
26. CC1(C)OC(=O)N(c2ccccc2)C12C=Cc1cc([N+](=O)[O-])cc([N+](=O)[O-])c1O2 (stereo not given)	> 100 µM
27. CCOC(=O)C1(C/C=C/CBr)Cc2ccccc2C1=O (stereo not given)	19.2 µM
28. CC(C)(C)OC(=O)NCCCCC1NC(=O)[C@@H]2Cc3c([nH]c4ccccc34)C(C3CCCCC3)N2C1=O (stereo not given in full)	> 100 µM
29. O=C1CC(NC(=O)C(F)(F)F)c2c(Br)sc(N3CCNCC3)c21 (stereo not given)	> 100 µM
30. COC(=O)/C=C1\S/C(=N\NC(=O)c2cc3ccc2/C=C\c2ccc(cc2)/C=C\3)N(c2ccccc2)C1=O	3.63 µM
31. CC1(C)N=[N+]([O-])C1(C)C	> 100 µM
32. CC(C)=CCc1c2c(c3occ(-c4ccc(O)cc4)c(=O)c3c1O)CC(C(C)(C)O)O2 (stereo not given)	26.7 µM
33. C=CC1(C)CCC2C(=CCC3C2(C)CC(O)C(O)C3(C)COC2OC(C(=O)O)C(O)C(O)C2O)C1 (stereo not given) (tested in a mixture with another compound)	> 100 µM
34. O=C1/C(=C/c2ccc(O)c(O)c2)CCC/C1=C\c1ccc(O)c(O)c1	19 µM
35. COc1cc2c(c3oc4c(O)cccc4c(=O)c13)CC(C(C)(O)CO)O2 (stereo not given)	> 100 µM

---

Below is a list of entries, each paired with its recorded TGI value.
tested on: SNB-19 CNS; experiment: NCI tumour cell line growth inhibition, 48 h
Result Type: TGI

1) COc1ccccc1N1C(=O)C2c3[nH]c4ccccc4c3C3CCC(C(C)(C)C)CC3C2C1=O (stereo not given)	> 100 µM
2) COC([CH2][Hg][n]1cnc2c1c(=O)n(C)c(=O)n2C)CN1C(=O)c2ccccc2S1(=O)=O (stereo not given)	> 100 µM
3) Cc1nc2n(c1/C=C1/C(=O)Nc3cccc(Cl)c31)CCS2	62.5 µM
4) COc1ccc(CC2c3cc4c(cc3CCN2C)OCO4)c(C=O)c1OC (stereo not given)	> 100 µM
5) CCCCC#C[I+]c1ccccc1	30.9 µM
6) CC1(C)C(=O)/C=C\C(=O)C(C)(C)C2=CC=C(O2)C(C)(C)C(=O)/C=C\C(=O)C(C)(C)C2=CC=C1O2	> 100 µM
7) COc1ccc2c(c1)/C(=C/CCN(C)C)c1ccccc1S2	> 100 µM
8) Cc1ccc(NC(=O)Nc2ccc(-c3cccnc3)cc2N2CCC(CO)CC2)cc1	> 100 µM
9) O=C1/C(=C/c2ccccc2)N=C2Sc3c(nc[nH]c3=O)N12	> 100 µM
10) Cc1ccc(CN2CCC(C(=O)Nc3ccc(-c4cc5ccccc5[nH]4)cc3)CC2)o1	> 100 µM
11) CCOC(=O)c1csc(NC(=O)CN2CCOCC2)n1	> 100 µM
12) O=C1CSC(c2ccc(Cl)cc2)N1c1ccc(Oc2ccc(Cl)cc2)c(Cl)c1 (stereo not given)	30.2 µM
13) CCC(C(=O)O)c1ccc(OC)cc1 (stereo not given)	> 100 µM
14) O=C1/C(=C/c2ccc(O)c(O)c2)CCC/C1=C\c1ccc(O)c(O)c1	29.1 µM
15) CC(=O)O[C@@H]1[C@H](C(C)C)[C@@H](OC(C)=O)C/C(C)=C/CC[C@]2(C)O[C@@H]12	> 100 µM
16) [N-]=[N+]=NC[C@H]1OCO[C@H](CN=[N+]=[N-])[C@@H](OCCOCCCl)[C@@H]1OCCOCCCl	> 100 µM
17) COc1cc2c(c(OC)c1OC)-c1ccc(NNC(N)=S)c(=O)cc1[C@@H](NC(C)=O)CC2	> 100 µM
18) O=C1C=CC(=O)c2c1ccc1c3ccccc3n(CCCCCCCCCCCCn3c4ccccc4c4ccc5c(c43)C(=O)C=CC5=O)c21	> 100 µM
19) C[C@@H](NC(=O)[C@@H]1C[C@]1(C)COC(=O)c1cc([N+](=O)[O-])cc([N+](=O)[O-])c1)c1cccc2ccccc12	> 100 µM
20) CCOC(=O)Cn1c(C(F)(F)F)nc2nc(Cl)c(Cl)nc21	> 96.2 µM
